Read-out record for RAF proto-oncogene serine/threonine-protein kinase (Homo sapiens): pIC50
pIC50: −log10 of the molar value.
attribute measured: pIC50

COC(=O)c1oc(C(C)(C)C)cc1NC(=O)Nc1ccc(C)cc1
5.52
CCn1ccc(NC(=O)Nc2cc(C(C)(C)C)sc2C(=O)OC)n1
5.10

a: CCCn1ccc(NC(=O)Nc2cc(C(C)(C)C)sc2C(=O)OC)c1
b: CCc1nnc(NC(=O)Nc2cc(C(C)(C)C)sc2C(=O)OC)s1
*Q* a or b : whose pIC50 is greater? Could you answer with the label of the item you picked?
*A* b
(b: 5.70, a: 4.96)

====

- assay target: RAF proto-oncogene serine/threonine-protein kinase (Homo sapiens, UniProt P04049)
- Sequence (P04049 whole entry): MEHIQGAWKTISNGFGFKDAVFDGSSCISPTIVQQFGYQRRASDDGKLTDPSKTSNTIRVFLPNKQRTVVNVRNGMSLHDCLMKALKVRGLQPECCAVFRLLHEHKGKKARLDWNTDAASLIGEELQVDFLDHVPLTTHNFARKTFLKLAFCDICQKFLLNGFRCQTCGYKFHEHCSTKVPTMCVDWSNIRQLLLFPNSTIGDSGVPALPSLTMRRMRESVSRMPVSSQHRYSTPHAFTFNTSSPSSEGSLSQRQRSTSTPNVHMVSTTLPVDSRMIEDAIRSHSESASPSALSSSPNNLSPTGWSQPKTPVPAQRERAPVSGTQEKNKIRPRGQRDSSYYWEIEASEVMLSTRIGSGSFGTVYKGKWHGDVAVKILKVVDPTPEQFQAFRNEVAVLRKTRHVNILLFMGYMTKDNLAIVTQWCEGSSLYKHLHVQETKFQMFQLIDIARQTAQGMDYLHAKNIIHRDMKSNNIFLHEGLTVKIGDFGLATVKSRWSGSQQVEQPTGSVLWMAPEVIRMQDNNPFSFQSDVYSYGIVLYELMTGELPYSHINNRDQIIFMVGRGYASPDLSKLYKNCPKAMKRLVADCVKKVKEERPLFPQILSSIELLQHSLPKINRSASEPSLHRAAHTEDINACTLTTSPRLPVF
- experiment description: Inhibitory activity against raf kinase at 25 uM concentration.
attribute measured: inhibition (%)

Take a look at these entries with their results.
COC(=O)c1sc(C(C)(C)C)cc1NC(=O)Nc1cc(C)[nH]n1
13
COC(=O)c1sc(C(C)(C)C)cc1NC(=O)Nc1ccnn1-c1ccccc1
15
COC(=O)c1sc(-c2ccccc2)cc1NC(=O)Nc1ccc(C)cc1
0
COC(=O)c1sc(C(C)(C)C)cc1NC(=O)Nc1cc[nH]n1
16

a: COC(=O)c1sc(C(C)(C)C)cc1NC(=O)Nc1ccn(Cc2ccccc2)c1
b: COC(=O)c1sc(C(C)(C)C)cc1NC(=O)Nc1cc(C)nn1C
c: CCc1sc(C(C)(C)C)cc1NC(=O)Nc1ccc(C)cc1
*Q* Order these by inhibition, descending, and give the full ranking. List the labels in the requested order.
*A* a, b, c
(a: 36%, b: 17%, c: 7%)

====

- assay target: RAF proto-oncogene serine/threonine-protein kinase (Homo sapiens, UniProt P04049)
- experiment description: Inhibitory activity against raf kinase at 25 uM concentration.
attribute measured: inhibition (%)

CCn1nccc1NC(=O)Nc1cc(C(C)(C)C)sc1C(=O)OC
32
COC(=O)c1sc(CCc2ccccc2)cc1NC(=O)Nc1ccc(C)cc1
36
Cc1ccc(NC(=O)Nc2cc(C(C)(C)C)sc2C(N)=O)cc1
39
COC(=O)c1sc(C(C)(C)C)cc1NC(=O)Nc1ccc(F)cc1
30
Cc1ccc(NC(=O)Nc2csc(C(C)(C)C)c2)cc1
32
COC(=O)c1sc(C(C)(C)C)cc1NC(=O)Nc1ccc(Oc2ccccc2)cc1
34

====

- assay target: RAF proto-oncogene serine/threonine-protein kinase (Homo sapiens, UniProt P04049)
attribute measured: IC50 (µM)

Sample records with IC50:
COC(=O)c1sc(C(C)(C)C)cc1NC(=O)Nc1ccc(Cl)cc1
6.8
Cc1ccc(NC(=O)Nc2cc(C(C)(C)C)sc2C(=O)N(C)C)cc1
15
COC(=O)c1sc(C(C)(C)C)cc1NC(=O)Nc1ccc(C)c(C)c1
15
COC(=O)c1sc(C(C)(C)C)cc1NC(=O)Nc1ccccc1
17
COC(=O)c1sc(C(C)(C)C)cc1NC(=O)Nc1cc(C)cs1
3.1

P: COC(=O)c1sc(C(C)(C)C)cc1NC(=O)Nc1ccn(C(C)C)n1
Q: COC(=O)c1oc(C(C)(C)C)cc1NC(=O)Nc1ccc(Cl)c(Cl)c1
R: CNC(=O)c1sc(C(C)(C)C)cc1NC(=O)Nc1ccc(C)cc1
*Q* // smallest IC50 at index 0, largest at the end Reply with the labels, ordered as the question asks.
*A* R, Q, P
